- assay.remarks: yeast display, Sf9 membrane polyspecificity reagent, FACS + sequencing; frameworks hold sequencing errors
quantity.measured: polyreactivity (PSR sort gate)

QVQLVESGGGLVQAGASLRLSCAASGRTFNVYAMGWYRQAPGKERELVASISSGTSTNYADSVKGRFTISRDNAKNTVYLQMNSLKPEDTAVYYCNADFVWNGYSGRIRDYYWGQGTQVTVSS :: low polyreactivity
QVQLVESGGCLVQAGGSLRLSCAASGLTFADNAMGWYRQAPGKERELVATISYSGGSTYYADSVKGRFTISRDNAKNTVYLQMNSLKPEDTAVYYCAADGNSTGVYLDGGEGFAYDYWGQGSQVTVSS :: low polyreactivity

----------
- assay.remarks: yeast display, Sf9 membrane polyspecificity reagent, FACS + sequencing; frameworks hold sequencing errors
quantity.measured: polyreactivity (PSR sort gate)

QVQLVESGGGLVQAGGSLRLSCAASGSTFTGYAMGWYRQAPGKERELVAAISISGGRTFYADSVKGRFTISRDNAKNTVYLQMNSLKPEDTAVYYCAAYLRGSKYSFDYWGQGTQVTVSS :: high polyreactivity
QVQLVESGGGLVQAGGSLRLSCAASGLIFRGYAMGWYIQAPGKERELVAAISKSGGSTYYADSVKGRFTISRDNAKNTVYLQMNSLKPEDTAVYYCNTDYDWKYFLSSQYDYWGQGTQVTVSS :: high polyreactivity
QVQLVESGGGLVQAGGSLRLSCAASGIIFRRYAMGWYRQAPGKERELVAVITSGGSTNYADSVKGRFTISRDNAKNTVYLQMNSLKPEDTAVYYCAAKGWVYWIRSRYDYWGQGTQVTVSS :: high polyreactivity
QVQLVESGGGLVQAGGSLRLSCAASGSTFGGYAMGWYRQAPGKERELVAAISSGGSTYYADSVKGRFTISRDNAKNTVYLQMNSLKPEDTAVYYCAADTYAHWGYYGSYYRDDYWGQGTQVTVSS :: low polyreactivity

// next entry
Q: // lookup polyreactivity (PSR sort gate) for QVQLVESGACLVQAGGSLRLSFAASGSIFGWYTMGWYRPAPGKERELVAAISNSGTSSYYADSEKGRFTISRDTAKNTVYLQMNSLKPEDTAVYYCNAYSDLFGSYTDLGEYDYWVQGTQVTVSS
Result: low polyreactivity

----------
- assay.remarks: yeast display, Sf9 membrane polyspecificity reagent, FACS + sequencing; frameworks hold sequencing errors
quantity.measured: polyreactivity (PSR sort gate)

Some sequences with recorded polyreactivity (PSR sort gate):
QVQLVESGGGLVQAGGSLRLSCAASGSTFVNYAMGWYRQAPGKERELVAAITRSGGNTYYADSVKGRFTISRDNAKNTVYLQMNSLKPEDTAVYDCAASFKQDIWYYYWGQGTQVTVSS :: high polyreactivity
QVQLVESGGGLVQAGGSLRLSCAASGSTFLKYAMGWYKHAPWKERELVAAITYRGGTTYYADSVKGRFTISRDNAKNSVYFQMNSLKPVDTAVYYCNARRDYDMDWGQGTLVTVSS :: high polyreactivity
QVQLQESGGGLVQAGGSLRLSCAASGYISLAQTKGWYRQEPGKEREFVASIALGSSTYYTDSVKGSFTISRDNAKTTVYLQMNSVKPEDTAVYYCAARVGASYAHDFWGQGTQVTVSS :: low polyreactivity
QVQLVESGGGLVQAGGSLRLSCAASGFIFIAYVMGWYRQAPGKERELVAAITRSGASTYYADSVKGRFTISRDNAKNTVYLQMNSLKPVDTAVYYCAARGAYSFYGYYYWGQGTQVTVSS :: high polyreactivity

// next entry
Q: // lookup polyreactivity (PSR sort gate) for QVQLVESGGGLVQAGGSLRLSCAASGSTFRYYSMGWYRQAPGKERELVASISSGGSTNYADSVKGRFTISRDNAKNTVYLQMNSLKPGDTAVYYCNADSWTVNRRYYYYRYEYWGQGTQVTVSS
Result: low polyreactivity
